The reader will find reported log10 EC50 values listed item by item below.
- target_or_system: Mu-type opioid receptor (Mus musculus, UniProt P42866)
- Sequence (P42866 whole entry): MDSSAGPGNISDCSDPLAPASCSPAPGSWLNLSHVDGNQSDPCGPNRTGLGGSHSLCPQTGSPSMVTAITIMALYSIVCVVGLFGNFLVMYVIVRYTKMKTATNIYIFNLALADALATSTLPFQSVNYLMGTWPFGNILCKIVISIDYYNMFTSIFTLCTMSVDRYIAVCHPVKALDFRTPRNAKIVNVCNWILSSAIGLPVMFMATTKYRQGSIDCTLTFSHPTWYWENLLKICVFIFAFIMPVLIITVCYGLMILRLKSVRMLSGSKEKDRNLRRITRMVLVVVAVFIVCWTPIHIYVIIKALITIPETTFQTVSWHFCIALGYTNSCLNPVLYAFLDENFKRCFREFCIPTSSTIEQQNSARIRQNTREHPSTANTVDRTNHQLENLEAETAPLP
- experimental_details: Agonist activity at mouse MOR assessed as inhibition of forskolin-stimulated cAMP accumulation after 30 mins by cell based TR-FRET assay
Quick note: numbers are log10 of EC50, with nM as the unit.

>>> recorded_measurement("COc1cc(C)c2c3c1O[C@H]1[C@H](F)[C@H](C)C[C@H]4[C@@H](C2)N(C)CC[C@@]341")
2.90
>>> recorded_measurement("COc1ccc2c3c1O[C@H]1[C@@H](O)[C@H](O)C[C@H]4[C@@H](C2)N(C)CC[C@@]341")
3.80

q: Endpoint output: log10 EC50 of COc1ccc2c3c1O[C@H]1[C@@H](O)[C@H](C)C[C@H]4[C@@H](C2)N(C)CC[C@@]341 . Value?
a: 2.78

q: Endpoint output: log10 EC50 of COc1ccc2c3c1O[C@H]1[C@@H](O)[C@H](F)C[C@H]4[C@@H](C2)N(C)CC[C@@]341 . Value?
a: 3.90

q: Endpoint output: log10 EC50 of C[C@@H]1C[C@H]2[C@H]3Cc4ccc(O)c5c4[C@@]2(CCN3C)[C@@H](O5)[C@H]1O . Value?
a: 1.00

q: Endpoint output: log10 EC50 of COc1ccc2c3c1O[C@H]1[C@@H](O)[C@H](OC)C[C@H]4[C@@H](C2)N(C)CC[C@@]341 . Value?
a: 3.60

q: Endpoint output: log10 EC50 of COc1cc(C)c2c3c1O[C@H]1[C@@H](O)[C@H](C)C[C@H]4[C@@H](C2)N(C)CC[C@@]341 . Value?
a: 3.30

q: Endpoint output: log10 EC50 of COc1ccc2c3c1O[C@H]1C(=O)CC[C@@]4(O)[C@@H](C2)N(C)CC[C@]314 [OXYCODONE] . Value?
a: 2.20

q: Endpoint output: log10 EC50 of COc1ccc2c3c1O[C@H]1[C@@H](OC)[C@H](C)C[C@H]4[C@@H](C2)N(C)CC[C@@]341 . Value?
a: 2.90
